tested on: OVCAR-4; assay: NCI tumour cell line growth inhibition, 48 h
Calls of active or inactive are those of the source. Rule as the data show it: active = GI50 up to about 1.1 µM and inactive = higher.
Reply using exactly one outcome from T for active, F for inactive

Answered examples (3):
>  <molecule>
O=S(=O)(O)c1ccc2cccc(/N=N\c3c(O)ccc4ccccc34)c2c1

>  <experimental system>
OVCAR-4

>  <assigned class>
F

$$$$
>  <molecule>
COc1cc2oc3c(c(=O)c2c(O)c1/C=C/C(C)C)CCC(C)(C)Oc1cc(O)ccc1-3

>  <experimental system>
OVCAR-4

>  <assigned class>
F

$$$$
>  <molecule>
c1ccc2cc3c(NC4=NCCO4)cccc3cc2c1

>  <experimental system>
OVCAR-4

>  <assigned class>
F

$$$$

Next up:
Input: State the result this test recorded for "O=C(c1ccco1)N(Cc1ccco1)C(=S)Nc1ccccc1" .
Output: F

---

tested on: UO-31; assay: NCI tumour cell line growth inhibition, 48 h
Active and inactive are the calls of the source. Cut-off read from the data, not from the text of the source: active = GI50 up to about 1.1 µM and inactive = higher.
Measured GI50 accompanies every entry in the list below.

The cases that follow already have their GI50 on record.
>  <compound>
CC(C)=CCNc1ncnc2c1ncn2CCC(=O)OC(C)(C)C

>  <observable>
GI50

>  <recorded measurement>
22.7 µM (inactive)

$$$$
>  <compound>
Cc1ccc(C(=C2Sc3ccccc3S2)C(=C2Sc3ccccc3S2)c2ccc(C)s2)s1

>  <observable>
GI50

>  <recorded measurement>
> 100 µM (inactive)

$$$$
>  <compound>
COC(=O)c1ccccc1NC(=S)NN(C)C

>  <observable>
GI50

>  <recorded measurement>
> 100 µM (inactive)

$$$$
>  <compound>
O=C(CC(=O)Nc1ccccc1)N/N=C/c1cc(/N=N/c2ccc(Br)cc2)ccc1O

>  <observable>
GI50

>  <recorded measurement>
2.42 µM (inactive)

$$$$
>  <compound>
O=S(=O)(O)c1ccc2cccc(/N=N\c3c(O)ccc4ccccc34)c2c1

>  <observable>
GI50

>  <recorded measurement>
> 100 µM (inactive)

$$$$

GI50 recorded for this compound, "CCCC(=O)OCOC(=O)N(C)/N=N/c1ccc(C(=O)OCC)cc1" , is 22 µM (inactive)

Given item "COc1cc2c(cc1OC)C(=O)/C(=C/c1cc(C)cc(C)c1)C2" , the value recorded as its GI50 is 1.95 µM (inactive)

response.value for CC1=NN(C(=O)CC(=O)Nc2cccc(C)c2)C(=O)C1/N=N\c1ccc(S(=O)(=O)c2ccc(/N=N/C3C(=O)N(C(=O)CC(=O)Nc4cccc(C)c4)N=C3C)cc2)cc1 (stereo not given) (field: GI50) = > 100 µM (inactive)

GI50 recorded for this compound, CC(C)C1COC(c2cccc(C3=N[C@@H](C(C)C)CO3)n2)=N1 (stereo not given in full) , is 98.6 µM (inactive)

Lab book: GI50 of Nc1ncc2c(n1)-c1ccccc1OC2N1CCOCC1 (stereo not given) noted as > 100 µM (inactive)

Summary for this compound, CC(C)C1(C)N=C(C(F)(F)F)c2cc(C(=O)C(F)(F)F)c3ccccc3c2N1 (stereo not given) : GI50 is 5.9 µM (inactive)

---

system: K562; assay: NCI tumour cell line growth inhibition, 48 h
Active and inactive are the calls of the source. Rule as the data show it: active = GI50 up to about 1.1 µM and inactive = higher.
observable: GI50

Examples with answers:
>  <compound>
CCc1ccc(Nc2cc(=O)[nH]c(=S)n2C)cc1

>  <experimental system>
K562

>  <GI50>
> 100 µM (inactive)

$$$$
>  <compound>
C=CC1(CC/C(=C\[N+](=O)[O-])c2ccc(OC)c(OC)c2)OCC(C)(C)CO1

>  <experimental system>
K562

>  <GI50>
6.61 µM (inactive)

$$$$
>  <compound>
COc1cc(OC)c(OC)cc1/C=C\c1nccc2ccccc12

>  <experimental system>
K562

>  <GI50>
28.9 µM (inactive)

$$$$
>  <compound>
N=C(N)c1ccc(/N=N\c2c(O)c(C(=O)Nc3ccccc3)cc3ccccc23)cc1

>  <experimental system>
K562

>  <GI50>
7.08 µM (inactive)

$$$$
>  <compound>
COC1=CC(=C(C#N)/C(=N\c2ccccc2)SC)C=C(OC)C1=O

>  <experimental system>
K562

>  <GI50>
22.6 µM (inactive)

$$$$

Now turn to the next compound.
Readout GI50 for Nc1ncc2c(n1)-c1ccccc1OC2N1CCOCC1 (stereo unspecified) , test system K562, was > 100 µM (inactive)

---

tested on: A549; experiment: NCI tumour cell line growth inhibition, 48 h
Active and inactive are the calls of the source. Rule as the data show it: active = GI50 up to about 1.1 µM and inactive = higher.
Could you please pick one outcome from this set? active, inactive

Use the examples below as a reference point.
>  <compound>
C[n+]1cccc2ccc3cccnc3c21

>  <assigned class>
inactive

$$$$
>  <compound>
CC(Oc1ccc(OCC2CCCCC2)cc1)C(=O)NCCO (centres undefined)

>  <assigned class>
inactive

$$$$

From here, focus on the item given below.
Input: How did this test come out for "CCN(CC)c1cc2c3c(c1)CCCN3CCC2" ?
Output: inactive

---

tested on: NCI-H226; test: NCI tumour cell line growth inhibition, 48 h
The source made the active and inactive calls. Rule as the data show it: active = GI50 up to about 1.1 µM and inactive = higher.
I would appreciate it if you answered using one of these outcomes: active, inactive

Record excerpt, results attached:
>  <compound>
COC(=O)C12C3C4C1C1C2C3C41C(=O)NC(C)(C)CC(=O)O (stereo unspecified)

>  <assigned class>
inactive

$$$$
>  <compound>
COC(=O)N1C2C(C[C@@]1(C)C(=O)OC)c1ccccc1N2S(=O)(=O)c1ccccc1 (stereo partly specified)

>  <assigned class>
inactive

$$$$
>  <compound>
O=C(c1ccco1)C1CC(c2c(O)ccc3ccccc23)=NN1 (stereo unspecified)

>  <assigned class>
inactive

$$$$
>  <compound>
CNC(=O)c1nnn(C2CCCCC2)c1S

>  <assigned class>
inactive

$$$$
>  <compound>
COC(=O)c1ccccc1NC(=S)NN(C)C

>  <assigned class>
inactive

$$$$
>  <compound>
Clc1ccc(C(Cc2cccc(Cl)c2)c2c(Cl)nc(N3CCNCC3)nc2Cl)cc1 (stereo unspecified)

>  <assigned class>
inactive

$$$$
>  <compound>
O=S(=O)(O)c1ccc2cccc(/N=N\c3c(O)ccc4ccccc34)c2c1

>  <assigned class>
inactive

$$$$
>  <compound>
O=C1/C(=C/c2ccccc2)CCc2ccccc21

>  <assigned class>
inactive

$$$$

Input: For "N=c1c2c(=S)n(-c3ccccc3)c(=S)n(-c3ccccc3)c2nc(SCCCN2CCN(c3cccc(Cl)c3)CC2)n1-c1ccccc1" , which call appears in the assay record?
Output: inactive

Input: # fetch the recorded call for [N-]=[N+]=NC(c1cn(C2CC(O)C(CO)O2)c(=O)[nH]c1=O)C(Cl)Br (stereo unspecified) here
Output: inactive

Input: Tell me the assay call for "Cc1ccccc1NC(=O)CC(=O)n1nc(-c2ccccc2)c(/N=N/c2ccc([N+](=O)[O-])cc2)c1-c1ccccc1" please.
Output: inactive

Input: # lookup: test call for "Cc1cc(Nc2ccc(S(=O)(=O)O)cc2)c2ccccc2n1"
Output: inactive

Input: Could you please tell me the result logged for CCCO/S(=N\S(=O)(=O)c1ccccc1)c1ccccc1[N+](=O)[O-] (stereo unspecified) in this assay?
Output: inactive

Input: Test call for this compound, please: "CC(C)C1=C(Cc2ccccc2)C(=O)O/C1=C\c1ccc(O)c(Cl)c1"
Output: inactive

Input: # outcome recorded in this test, key = "CCO/N=C\c1ccc2oc(-c3ccccc3)cc(=O)c2c1"
Output: active

Input: GET /call?item= "Cc1ccc2cccc3c2c1CC1(C3=O)S(=O)(=O)OCCOS1(=O)=O" returns the recorded outcome of this test.
Output: inactive

Input: Please let me know the test result on file for "O=C(CCCN1CCC2(CC1)C(=O)NC(=O)N2c1ccccc1)c1ccc(F)cc1" .
Output: inactive

Input: Entry "Cn1c(=O)[nH]n(-c2ccc3ccccc3c2)c1=O" : call = ?
Output: inactive

Input: # lookup: test call for CC(CO)[C@H]1OC(=O)C=C2[C@@]13O[C@@H]3[C@H]1OC(=O)[C@@]3(C)[C@H]4O[C@H]4C[C@@]2(C)[C@@H]13 (stereo partly specified)
Output: inactive

Input: State the result this test recorded for "O=C(O)Cn1ccc(=O)c2ccc([N+](=O)[O-])cc21" .
Output: inactive

Input: State the result this test recorded for "Cc1ccc(-c2nnc(-c3ccc4ccccc4c3)o2)cc1" .
Output: inactive

---

system: RPMI-8226; assay: NCI tumour cell line growth inhibition, 48 h
Activity calls are given as the source filed them. Rule as the data show it: active = GI50 up to about 1.1 µM and inactive = higher.
Pick one: active, inactive

>  <molecule>
NC(=O)CC(N)c1nnn[nH]1 (stereo not drawn)

>  <assigned class>
inactive

$$$$
>  <molecule>
CC(C)(C)OC(=O)N(CCCCNC(=O)C(F)(F)F)CCCNC(=O)C(F)(F)F

>  <assigned class>
inactive

$$$$
>  <molecule>
O=C(/C(=C/c1cccs1)c1ccccc1)c1ccccc1

>  <assigned class>
inactive

$$$$
>  <molecule>
CC(=O)OC1CCCn2c1nc1c2C(=O)C(C)=C(N2CC2)C1=O (stereo not drawn)

>  <assigned class>
active

$$$$

Input: Please let me know the test result on file for CC1=C(/C=C/C(C)=C/C=C/C(C)=C/C(=O)Nc2ccc(O)cc2)C(C)(C)CCC1 [FENRETINIDE] .
Output: inactive

Input: Recorded test outcome, item "c1ccc(-c2nc3ccccc3nc2SCc2cccnc2)cc1"
Output: inactive

Input: Could you kindly confirm the outcome this assay logged for "O=C1C2=C(CCCC2)Nc2cccc3ncn1c23" ?
Output: inactive
